# Tested on: M19-MEL
# Protocol summary: NCI tumour cell line growth inhibition, 48 h
Active and inactive are the calls of the source. No stated cut-off is given here; in the data, active = GI50 up to about 1.1 µM and inactive = higher.
Classes to choose from: active, inactive

Compound	Discrete label
CC#C[C@@]1(O)CCCCC1O (stereo partly specified)	inactive
COc1ccc(/C(Cl)=C(\C=O)c2ccc([N+](=O)[O-])cc2)cc1OC	inactive
CCN(CC)CC(C)C(=O)/C=C/c1ccc(C)cc1 (stereo unspecified)	inactive
COC(=O)[C@@]12C(=O)CCC(=O)C1C1C(=CC2C)O[C@@H]2OC3(CCCCC3)O[C@H]12 (stereo partly specified)	inactive
Cc1ccc(SSc2ccc(C)cc2C(=O)O)c(C(=O)O)c1	inactive

Fill in: this test's call for CCCCCCCCCCC(=O)CC(=O)c1c(O)cccc1O is ___ inactive

Check CCCCn1c2ccccc2c2ccc3c(c21)C(=O)C=CC3=O too. active

Also, Cn1c(N)nc(=O)c2c1N(C1OC(CO)C(O)C1O)CN2Cc1ccccc1 (stereo unspecified) please. inactive

Follow-up entry: COC(=O)C(C(=O)C(=O)Nc1ccc([N+](=O)[O-])cc1[N+](=O)[O-])c1nc2ccc(Cl)cc2nc1O (stereo unspecified) inactive

// same read-out, input: O=S(=O)(O)CS(=O)(=O)OCCCl inactive

Try this compound next: O=C1C[C@@H]2[C@@H](CCC23CC3)N1 inactive

Data provenance is ChEMBL document CHEMBL1201862.
